# Lookup of reported IC50 keyed by entry
# MEASURED TARGET: Coagulation factor XI (Homo sapiens) (UniProt P03951)
# Sequence (P03951 19-387 limits assumed): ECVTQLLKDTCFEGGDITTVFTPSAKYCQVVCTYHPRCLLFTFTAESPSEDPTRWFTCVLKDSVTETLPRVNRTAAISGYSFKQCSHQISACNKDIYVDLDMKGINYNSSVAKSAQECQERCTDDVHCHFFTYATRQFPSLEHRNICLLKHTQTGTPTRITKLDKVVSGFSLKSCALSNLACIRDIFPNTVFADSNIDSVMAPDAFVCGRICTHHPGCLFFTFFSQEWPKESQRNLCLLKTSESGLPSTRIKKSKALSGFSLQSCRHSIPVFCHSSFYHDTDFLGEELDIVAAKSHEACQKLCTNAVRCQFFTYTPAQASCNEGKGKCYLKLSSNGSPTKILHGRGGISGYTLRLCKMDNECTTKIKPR
# Sequence (P03951 388-625 limits assumed): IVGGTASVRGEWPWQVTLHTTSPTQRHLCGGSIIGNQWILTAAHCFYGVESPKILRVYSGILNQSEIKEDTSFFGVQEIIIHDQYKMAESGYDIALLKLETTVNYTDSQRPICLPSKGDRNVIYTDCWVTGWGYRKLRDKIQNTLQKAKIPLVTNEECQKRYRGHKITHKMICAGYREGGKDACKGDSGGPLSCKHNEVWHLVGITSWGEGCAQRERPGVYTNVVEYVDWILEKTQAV
# PROTOCOL DESCRIPTION: FXIa inhibitor IC50 values, dose response, biochemical, hits from single-well screen (AID 721)
# CONDITION DETAILS: purified factor XIa enzymatic assay, fluorescence
The source made the active and inactive calls. How the calls were made is not given here.

INSERT INTO results (molecule, result) VALUES
  ('CCc1c(O)nc(SCC(=O)NC(C)(C)C)n(-c2ccccc2)c1=O', '> 50 µM (inactive)'),
  ('Cc1cc(=O)[nH]c(-n2[nH]c(C)cc2=O)n1', '> 50 µM (inactive)'),
  ('COc1ccc(S(=O)(=O)N2CCC(C(=O)N3CCc4ccccc4C3)CC2)cc1Cl', '6.26 µM'),
  ('Cn1c(SCC(=O)NC2CCCCC2)nnc1-c1cccc(N)c1', '> 50 µM (inactive)'),
  ('O=C(Nc1ccccc1C(=O)N1CCOCC1)c1ccc(F)cc1', '21.4 µM');

Summary for this molecule, Cc1ccc(C(=O)n2nnc3ccccc32)cc1 : IC50 is 2.39 µM

Briefly, IC50 measured for CN(CCOc1ccccc1)c1ccc(S(=O)(=O)N2CCCCC2)cn1 : > 50 µM (inactive)

So for Cc1ccc(-c2csc(N3CCC(NS(=O)(=O)c4ccc5c(c4)OCCO5)CC3)n2)cc1 , the logged IC50 turned out to be > 50 µM (inactive)

Memo: OCCCn1c(-c2ccccc2)nc(=S)c2c1CCCC2 , reported IC50: > 50 µM (inactive)

Measured IC50 of O=c1nc(-c2ccccc2)c2cc(Cl)ccc2[nH]1 : > 50 µM (inactive)
